Data provenance: ChEMBL document CHEMBL5058577

- Test system: Fibroblast
- MEASUREMENT_PROTOCOL: Multiplex assay against human fibroblast
- Type: toxicity, cell-based
- TEST_CONTEXT: 48 h, 10 µM, compound concentration 10 uM, replicate 2
Could you please report measured Population Pyknosed Nuclei (%) for the items listed next?
Numbers only, in %.

{"columns": ["COMPOUND_STRUCTURE_STRING", "MEASUREMENT"],
 "data": [
  ["Cc1cnc(-c2cc(N3CCN(C(=O)CCS(C)(=O)=O)CC3)ncc2Cl)c(C)c1", 9],
  ["N#Cc1c(Oc2cccc(OS(=O)(=O)CCCC(F)(F)F)c2)cccc1C(F)(F)F", 25]
]}

Pending compound:
Summary for this compound, CC(=O)Nc1cccc2c1c(Sc1ccc(Cl)cc1)c(C)n2CC(=O)O : Population Pyknosed Nuclei (%) is 15

----------
- Tested on: U2OS
- MEASUREMENT_PROTOCOL: Multiplex assay against U2OS
- Type: toxicity, cell-based
- TEST_CONTEXT: human, 48 h, 10 µM, compound concentration 10 uM, replicate 2
PROPERTY: Population Fragmented Nuclei (%)
Answers are plain numbers, in %.

{"columns": ["COMPOUND", "TARGET_SYSTEM", "UNIT_SPEC", "Population Fragmented Nuclei (%)"],
 "data": [
  ["CCCCC(=O)N(Cc1ccc(-c2ccccc2-c2nnn[nH]2)cc1)[C@H](C(=O)O)C(C)C", "U2OS", "%", 21],
  ["NCCc1cn(S(=O)(=O)c2c(Cl)nc3sccn23)c2ccccc12.O=C(O)C(=O)O", "U2OS", "%", 29],
  ["Cc1onc(-c2ccccc2Cl)c1C(=O)N(C)c1ccc(Cl)cc1", "U2OS", "%", 23]
]}

Give one value of Population Fragmented Nuclei (%) per listed compound.
1. CC[C@@H](C)Nc1nc(C)nc2c(-c3ccc(OC)nc3C)c(C)nn12
2. CC(/C=C1\SC(=S)N(CCCC(=O)Nc2ccc(C(=O)O)c(O)c2)C1=O)=C\c1ccccc1
3. CN[C@@H](C)C(=O)N[C@H](C(=O)N1CCC[C@H]1C(=O)Nc1snnc1-c1ccccc1)C1CCCCC1

Result:
[13, 16, 45]

Give one value of Population Fragmented Nuclei (%) per listed compound.
1. CN1CCN(c2cc(-c3ccccc3)nc(N)n2)CC1
2. CC(C)(C)c1cc(NC(=O)Nc2ccc(-c3cn4c(n3)sc3cc(OCCN5CCOCC5)ccc34)cc2)no1
3. N#Cc1cc(F)cc(-c2nc(-c3ccc(F)cn3)no2)c1
4. Cc1cccc(NC(=O)CN2CCC(c3ccccn3)CC2)c1.Cl.Cl

Result:
1: 11; 2: 19; 3: 10; 4: 19

Give one value of Population Fragmented Nuclei (%) per listed compound.
1. CCCCC1=NC2(CCCC2)C(=O)N1Cc1ccc(-c2ccccc2-c2nnn[nH]2)cc1
2. Cc1noc(-c2ccc(-c3ccc(CC(=O)O)cc3)cc2)c1NC(=O)O[C@H](C)c1ccccc1Cl
3. O=C1[C@H](Cc2ccc(O)cc2)N2C(=O)CCN(C(=O)NCc3ccccc3)[C@H]2CN1Cc1cccc2ccccc12
4. COC[C@@H](c1ccc(C(F)(F)F)cc1)N1CCN(C2(C)CCN(C(=O)c3c(C)ncnc3C)CC2)C[C@@H]1C.O=C(O)/C=C\C(=O)O [VICRIVIROC MALEATE]
5. CCCOc1ccc2[nH]cc(C3=CCNCC3)c2n1.Cl
6. Cl.NCCc1ccc(O)c(O)c1 [DOPAMINE HYDROCHLORIDE]

Result:
1: 16; 2: 9; 3: 33; 4: 18; 5: 13; 6: 14
